- Tested on: HOP-92
- measurementDescription: NCI tumour cell line growth inhibition, 48 h
The source made the active and inactive calls. Cut-off read from the data, not from the text of the source: active = GI50 up to about 1.1 µM and inactive = higher.
measuredAttribute: GI50

O=C1N/C(=N/N=C/C(O)C(O)C(O)C(O)CO)N/C1=C\c1cccs1 (centres undefined)	> 100 µM (inactive)
Cc1cccc(C)c1NC(=O)CCC(=O)/N=C(\N)NC#N	> 100 µM (inactive)
O=C1C2C(C(=O)N1c1ccccc1)C1([N+](=O)[O-])C=C3c4ccccc4N(C(=O)c4ccccc4)C32C2C(=O)N(c3ccccc3)C(=O)C21 (centres undefined)	> 100 µM (inactive)
COc1cc(NC(C)=O)ccc1C(=O)NN1C(=O)C(Cl)C1c1ccco1 (centres undefined)	> 100 µM (inactive)
CCOC(=O)Cc1c(C)c2ccc(OC(C)=O)c(OC(C)=O)c2oc1=O	17.5 µM (inactive)
COC(=O)Nc1nc2cc(S(=O)(=O)NC(CC(C)C)C(=O)OC)ccc2[nH]1 (centres undefined)	2.83 µM (inactive)
O=c1ccn(C2OC(COC3CCCCO3)C(OC3CCCCO3)C2OC2CCCCO2)c(=O)n1-c1ccccc1 (centres undefined)	> 100 µM (inactive)
CCOC(=O)c1sc2c(c1OC(=O)c1ccc(OC)cc1)c(=O)n(-c1ccccc1)c(=S)n2-c1ccccc1	20.9 µM (inactive)

Input line: Record request: GI50 value, item "Cc1ccc(/C=C2\Cc3c(C)cc(C)cc3C2=O)c(C(=O)O)c1"
Output line: 36.1 µM (inactive)

====

I'd appreciate it if you could supply GI50 values for the items below.
- Test system: K562
- measurementDescription: NCI tumour cell line growth inhibition, 48 h
Active and inactive are the calls of the source. Cut-off read from the data, not from the text of the source: active = GI50 up to about 1.1 µM and inactive = higher.

Completed entries (count: 5):
COc1nc(C(=O)NNC(=O)c2nc(OC)c3ccccc3c2-c2ccccc2)c(-c2ccccc2)c2ccccc12	> 100 µM (inactive)
O=C(NNc1ccc([N+](=O)[O-])cc1)C1OC(CO)C(O)C1O (stereo not given)	67 µM (inactive)
COC(=O)[C@]12C3=C(O)C(=O)C[C@H]1OC[C@H]2C=CC3	64 µM (inactive)
CCOC(=O)c1oc2cc3c(c4c2c1-c1ccccc1N4C)C=CC(C)(C)O3	6.71 µM (inactive)
CCOC(=O)C1CCn2c(nc3c(=O)n(C)c(=O)n(C)c32)S1 (stereo not given)	> 100 µM (inactive)

Hi there! I need GI50 for each item below, if you can.
1. Cc1ccc(/C=C2\CCCC\C2=N\O)cc1
2. Fc1cccc(C2ON=C(c3ccccc3)N2C23CC4CC(CC(C4)C2)C3)c1 (stereo not given)
3. Cn1nc(-c2ccccc2)c(C(=O)/C=C/c2ccc(Cl)cc2)c(N2CCCCC2)c1=O
4. [O-][S+]1c2ccc(Cl)cc2CC(SSC2Cc3cc(Cl)ccc3[S+]([O-])c3ccccc32)c2ccccc21 (stereo not given)
5. C=C(C)C(=O)O[C@H]1CC2=CC(CC(C)=C[C@H]3OC(=O)C(=C)C13)OC2=O (stereo not given in full)

Output line:
41 µM (inactive)
> 10 µM (inactive)
2.04 µM (inactive)
> 100 µM (inactive)
7.74 µM (inactive)

====

- Test system: NCI-H460
- measurementDescription: NCI tumour cell line growth inhibition, 48 h
Active and inactive are the calls of the source. No stated cut-off is given here; in the data, active = GI50 up to about 1.1 µM and inactive = higher.
I'd appreciate it if you could supply GI50 values for the items below.

Completed entries (count: 5):
Cc1c(NC(=S)N/N=C\C(=N/NC(=S)Nc2c(C)n(C)n(-c3ccccc3)c2=O)c2ccccc2)c(=O)n(-c2ccccc2)n1C	> 100 µM (inactive)
C=C1c2nc3ccccc3n2C=C(c2ccc(OC)cc2)N1c1ccc(OC)cc1	13.8 µM (inactive)
O=[N+]([O-])c1ccc(Cl)cc1N/N=C/c1cccc2cccnc12	> 100 µM (inactive)
S=c1c2nc[nH]c2ncn1CCSC1=NC=NC2=NC=NC21 (stereo not given)	> 100 µM (inactive)
NC(CCCCNCc1ccccc1)C(=O)O (stereo not given)	> 100 µM (inactive)

Hi there! I need GI50 for each item below, if you can.
1. CCC1OC(=O)CC(O)C(C)C(OC2OC(C)C(O)C(N(C)C)C2O)C(CC=O)CC(C)C(=O)/C=C/C2(C)OC2C1C (stereo not given)
2. CC1(Cl)CC(C)(/C=C/Cl)C(Cl)CC1Cl (stereo not given)
3. c1ccc(-c2c(-c3[nH]c4ccccc4c3-c3ccccc3)[nH]c3ccccc23)cc1
4. COc1cc(I)c2c3c1OC1C34CCN(C)C(C2)C4=CC(I)C1(OC)OC (stereo not given)
5. CC(C)=CC1CCc2ccccc2N1S(=O)(=O)c1ccc(C)cc1 (stereo not given)

Output line:
32.4 µM (inactive)
14.2 µM (inactive)
2.95 µM (inactive)
19.1 µM (inactive)
1.36 µM (inactive)
